Measured melting point of individual entries

{"Compound": "CC(Oc1ccc(-c2ccc(S(N)(=O)=O)cc2)cc1)C(O)CCc1cccnc1 (stereo unspecified)", "melting point": "222 to 223 °C"}
{"Compound": "CCOC(=O)C(C)Oc1ccc(Nc2ccc(C(F)(F)F)cc2[N+](=O)[O-])cc1 (stereo unspecified)", "melting point": "61 to 63 °C"}
{"Compound": "COC(=O)c1ccc(-c2nc(COc3ccc(COc4nn(-c5ccccc5)cc4C=O)cc3OC)c(C)o2)cc1", "melting point": "190 to 191 °C"}
{"Compound": "O=C(NCc1ccccc1)c1ccnc(N2CCN(Cc3ccncc3)C2=O)c1", "melting point": "154 to 156 °C"}
{"Compound": "FC(F)(F)c1ccc(OC2(c3ccccc3)CCNCC2)cc1", "melting point": "104 to 105 °C"}
{"Compound": "C[Si](C)(C)C#Cc1cc(F)cnc1N", "melting point": "65 °C"}
{"Compound": "COc1cc2cccc(OC)c2cc1C(=O)O", "melting point": "151 to 153 °C"}
{"Compound": "OCc1c[nH]c(=S)n1[C@H]1CCc2c(F)cc(F)cc2C1", "melting point": "206 to 207 °C"}
{"Compound": "c1cc2ccc3nnsc3c2cn1", "melting point": "150 to 153 °C"}
{"Compound": "COc1c(NC2CCC3(CC2)OCC(C)(C)CO3)ccnc1C", "melting point": "45 °C"}
{"Compound": "CSc1nc(SC)c2ccccc2n1", "melting point": "85 °C"}
{"Compound": "[N-]=[N+]=N[C@@H]1c2cc(F)ccc2Oc2ccccc2[C@H]1C[C@@H](O)COC(c1ccccc1)(c1ccccc1)c1ccccc1", "melting point": "58 to 59 °C"}
{"Compound": "CC(=O)c1c(C)cc(=O)[nH]c1C", "melting point": "160 to 162 °C"}
{"Compound": "CN(c1nc(-c2cc3ccccc3[nH]c2=O)cs1)S(=O)(=O)c1cccc(F)c1", "melting point": "247 to 249 °C"}
{"Compound": "CCOC(=O)c1c(CN(CC)CC)nc2sc3c(c2c1-c1ccc(OC)c(OC)c1)CN(C(=O)c1ccc(Cl)cc1)CC3", "melting point": "91 to 92 °C"}
{"Compound": "N#CNC(=S)Nc1cccc(Cl)c1", "melting point": "258 to 260 °C"}
{"Compound": "O=S(=O)(c1ccccc1)n1cc(-c2ccnc(N[C@H]3CC[C@H](O)CC3)n2)c2ccccc21", "melting point": "132 to 133 °C"}
{"Compound": "CSC(=NC#N)N1CCc2nc(N)sc2C1", "melting point": "152 to 155 °C"}
{"Compound": "O=C(O)CC(O)c1ccc(-c2ccc(Cl)c(Cl)c2)o1 (stereo unspecified)", "melting point": "95 to 96 °C"}
{"Compound": "N#Cc1ccc(CC2CCN(C(=O)C(=O)Nc3ccc4[nH]c(=O)oc4c3)CC2)cc1", "melting point": "194 °C"}
{"Compound": "CCCNC(=O)c1ccc(CCCc2cc(S(C)(=O)=O)ccc2OCc2ccccc2)cc1", "melting point": "121 °C"}
